Entries and their PBM E-score values follow.
- assayed-system: Ylr278c (UniProt Q05854)
- Sequence (Q05854 whole entry): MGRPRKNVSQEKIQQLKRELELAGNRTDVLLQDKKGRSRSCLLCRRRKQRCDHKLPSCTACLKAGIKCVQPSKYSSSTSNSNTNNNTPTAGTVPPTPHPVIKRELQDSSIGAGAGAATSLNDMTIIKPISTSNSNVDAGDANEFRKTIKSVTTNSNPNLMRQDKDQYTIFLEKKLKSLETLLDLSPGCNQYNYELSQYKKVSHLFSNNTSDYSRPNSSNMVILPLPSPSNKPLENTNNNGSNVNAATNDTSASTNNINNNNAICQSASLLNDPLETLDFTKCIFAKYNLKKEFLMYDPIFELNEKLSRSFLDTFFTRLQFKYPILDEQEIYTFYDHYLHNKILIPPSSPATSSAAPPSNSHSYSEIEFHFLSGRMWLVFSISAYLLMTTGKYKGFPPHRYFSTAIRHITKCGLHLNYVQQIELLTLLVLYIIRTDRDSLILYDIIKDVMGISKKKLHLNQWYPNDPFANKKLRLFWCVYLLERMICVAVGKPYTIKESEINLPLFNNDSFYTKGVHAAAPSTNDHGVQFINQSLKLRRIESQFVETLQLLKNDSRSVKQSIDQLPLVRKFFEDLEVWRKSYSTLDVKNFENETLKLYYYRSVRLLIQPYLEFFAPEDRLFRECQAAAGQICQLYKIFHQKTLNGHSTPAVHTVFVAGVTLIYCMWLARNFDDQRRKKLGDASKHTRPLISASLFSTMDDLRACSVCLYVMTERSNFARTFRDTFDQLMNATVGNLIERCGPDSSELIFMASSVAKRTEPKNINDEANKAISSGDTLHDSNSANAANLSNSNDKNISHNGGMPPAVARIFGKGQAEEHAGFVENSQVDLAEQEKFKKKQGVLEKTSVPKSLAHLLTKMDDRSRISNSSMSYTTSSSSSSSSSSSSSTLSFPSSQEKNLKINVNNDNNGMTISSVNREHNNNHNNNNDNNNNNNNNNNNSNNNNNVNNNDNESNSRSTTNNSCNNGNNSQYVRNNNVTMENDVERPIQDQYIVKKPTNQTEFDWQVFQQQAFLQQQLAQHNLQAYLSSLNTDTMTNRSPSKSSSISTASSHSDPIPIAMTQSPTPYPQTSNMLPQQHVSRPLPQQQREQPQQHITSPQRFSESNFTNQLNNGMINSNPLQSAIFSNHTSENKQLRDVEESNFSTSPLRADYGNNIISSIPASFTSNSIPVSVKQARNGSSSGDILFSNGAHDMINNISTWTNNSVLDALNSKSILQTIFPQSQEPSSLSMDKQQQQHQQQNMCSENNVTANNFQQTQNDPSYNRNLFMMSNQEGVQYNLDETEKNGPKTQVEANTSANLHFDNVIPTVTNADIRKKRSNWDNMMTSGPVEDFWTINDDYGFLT
- measurement-notes: PBM E-score (8-mer binding enrichment) (E-score (-0.5 to 0.5)); higher = stronger / more preferred TF binding
- condition-label: protein concentration: 200 nM; construct: GST-DNA-binding domain
Whole data set: some 33,000 sequences, median “E-score (-0.5 to 0.5)” near -0.054, cut for the highest 2% near 0.39. This excerpt belongs to a sample that is enriched for the highest values.
Give only the figure.

Before answering, review these 2 worked examples.
seq	assayed-system	PBM E-score
GTCGGGCA	Ylr278c (UniProt Q05854)	0.0838
CGTCCGTC	Ylr278c (UniProt Q05854)	0.208

Data request: Determine from records and report PBM E-score for GACCGGTC
Data returned: 0.397

Data request: Determine from records and report PBM E-score for GCGCGGAC
Data returned: 0.294

Data request: Determine from records and report PBM E-score for TCTTATCA
Data returned: 0.0183

Data request: Determine from records and report PBM E-score for AAGCCGTG
Data returned: 0.00789

Data request: Determine from records and report PBM E-score for GGACTGAA
Data returned: -0.00012

Data request: Determine from records and report PBM E-score for GTCCGGTA
Data returned: 0.366

Data request: Determine from records and report PBM E-score for CGAGATCA
Data returned: 0.013

* * *

- assayed-system: Ylr278c (UniProt Q05854)
- measurement-notes: PBM E-score (8-mer binding enrichment) (E-score (-0.5 to 0.5)); higher = stronger / more preferred TF binding
- condition-label: protein concentration: 200 nM; construct: GST-DNA-binding domain
The full ranking holds about 33,000 sequences; the median of “E-score (-0.5 to 0.5)” is about -0.054, and the highest 2% start at about 0.39. The list comes from a sample in which the highest values are over-represented; it also holds close analogues and randomly drawn sequences.
The label depends only on PBM E-score: condition met if it is at least 0.3, condition not met if it is smaller.

seq	category-label
AACCAGGG	condition not met
ACTCCTGG	condition not met
ATGTCGGG	condition not met

Data request: Form field: PBM E-score at least 0.3? Entry: CCTCCTGC
Data returned: condition not met

Data request: Form field: PBM E-score at least 0.3? Entry: CGGAGTCC
Data returned: condition met

Data request: Form field: PBM E-score at least 0.3? Entry: ATAACTGG
Data returned: condition not met

Data request: Form field: PBM E-score at least 0.3? Entry: AGACTCCG
Data returned: condition met

Data request: Form field: PBM E-score at least 0.3? Entry: GGCCGGTA
Data returned: condition not met

Data request: Form field: PBM E-score at least 0.3? Entry: CTGTCGAA
Data returned: condition not met

Data request: Form field: PBM E-score at least 0.3? Entry: CGACTCCG
Data returned: condition met

Data request: Form field: PBM E-score at least 0.3? Entry: ATGTCGGC
Data returned: condition not met

Data request: Form field: PBM E-score at least 0.3? Entry: ATCTCCAG
Data returned: condition not met

Data request: Form field: PBM E-score at least 0.3? Entry: AAGTTCAA
Data returned: condition not met

Data request: Form field: PBM E-score at least 0.3? Entry: AGCAGGAT
Data returned: condition not met

Data request: Form field: PBM E-score at least 0.3? Entry: CTCTCCGC
Data returned: condition met

Data request: Form field: PBM E-score at least 0.3? Entry: CCGGAGAG
Data returned: condition met

Data request: Form field: PBM E-score at least 0.3? Entry: ACGGAGAA
Data returned: condition met

Data request: Form field: PBM E-score at least 0.3? Entry: CGGAGTCA
Data returned: condition met

Data request: Form field: PBM E-score at least 0.3? Entry: AGCCGGAA
Data returned: condition met

Data request: Form field: PBM E-score at least 0.3? Entry: AAGGAGAA
Data returned: condition not met

Data request: Form field: PBM E-score at least 0.3? Entry: CCCCGCAA
Data returned: condition not met

Data request: Form field: PBM E-score at least 0.3? Entry: CGACTCCC
Data returned: condition not met

Data request: Form field: PBM E-score at least 0.3? Entry: CCACCGGG
Data returned: condition met

Data request: Form field: PBM E-score at least 0.3? Entry: GGGAGTGA
Data returned: condition not met

Data request: Form field: PBM E-score at least 0.3? Entry: ATCTCCCA
Data returned: condition not met

Data request: Form field: PBM E-score at least 0.3? Entry: CCCGCGGC
Data returned: condition met

Data request: Form field: PBM E-score at least 0.3? Entry: AACGCGGA
Data returned: condition met
